Species on record: Homo sapiens
Experiment: To identify inhibition of the IFN signalling (Jak-Stat) pathway via expression of an eGFP reporter gene under the control of an IFN-stimulated response element (ISRE) containing MxA promoter.
Assay type: functional
Parameters: scale not given: direction of the effect not stated beside the values
Settings: 30 µM
The entries below are paired with their reported Percent Effect.

- molecule: "CCc1ccc(C(=O)N2CCCC(c3noc(CC)n3)C2)o1 (centres undefined)"
  unit-tag: "%"
  Percent Effect: 3.88
- molecule: "CC(C)N1CC(C(=O)NCc2ccnc(-n3cccn3)c2)CC1=O (centres undefined)"
  unit-tag: "%"
  Percent Effect: 25.3
- molecule: "COc1ccccc1OCc1cc(C(=O)N2C[C@H](O)[C@@H](N(C)C)C2)n[nH]1"
  unit-tag: "%"
  Percent Effect: 9.72
- molecule: "C[C@@H]1CN(C2(C(=O)N3CCCCCC3)Cc3ccccc3C2)C[C@H](C)O1"
  unit-tag: "%"
  Percent Effect: -2.77
- molecule: "CC(C)CN1CCC2(C=C(C(=O)N3CCCC3)c3ccccc32)CC1"
  unit-tag: "%"
  Percent Effect: 1.33
- molecule: "N#Cc1cc(NS(=O)(=O)c2ccc(C(=O)O)cc2F)ccc1F"
  unit-tag: "%"
  Percent Effect: -0.301
- molecule: "CCCNC(=O)CNc1cc(C(=O)N2CCSCC2)ccc1C"
  unit-tag: "%"
  Percent Effect: 2.79
- molecule: "OC(CNCCn1cccn1)c1ccc(F)c(F)c1 (centres undefined)"
  unit-tag: "%"
  Percent Effect: 18.7
- molecule: "CC(C)C(=O)N1CCN(Cc2cc(-c3ccncc3)nn2C)CC1"
  unit-tag: "%"
  Percent Effect: 0.905
- molecule: "COCCc1noc(CN2CCCCC2Cn2cc(C)cn2)n1 (centres undefined)"
  unit-tag: "%"
  Percent Effect: 12.7
- molecule: "O=C(CSc1ccccn1)N1C[C@H]2CC[C@@H]1CN(Cc1cscn1)C2"
  unit-tag: "%"
  Percent Effect: 11.3
- molecule: "CCN(CC)CCNC(=O)c1ccn(COc2cc(C)cc(C)c2)n1"
  unit-tag: "%"
  Percent Effect: 0.95
- molecule: "COc1ccccc1CN1CC[C@H]2C[C@@H](C(=O)N3CCCC3)O[C@H]2C1"
  unit-tag: "%"
  Percent Effect: 6
- molecule: "Cc1nn(C)c(C)c1C(C)NC(=O)Nc1cccnc1N1CCCC1 (centres undefined)"
  unit-tag: "%"
  Percent Effect: 15
- molecule: "CC(=O)NCCc1cc(N2CCN(C(C)=O)CC2)nc(C2CC2)n1"
  unit-tag: "%"
  Percent Effect: 7.59
- molecule: "Cn1cc(CC(=O)N2CCC(Nc3cccnn3)CC2)c2ccccc21"
  unit-tag: "%"
  Percent Effect: 4.59
- molecule: "Cc1nc(CN2CCN(Cc3nccn3C)CC2)no1"
  unit-tag: "%"
  Percent Effect: 11.1
- molecule: "COCc1cncc2c1CCN(C(=O)c1ccc(C)o1)C2"
  unit-tag: "%"
  Percent Effect: -0.987
- molecule: "CC(Cn1ccnc1)NC(=O)N1CCN(Cc2cccnc2)CC1 (centres undefined)"
  unit-tag: "%"
  Percent Effect: 4.46
- molecule: "CCc1nc(N)sc1C(=O)N1CCCC(CCc2ccccc2C)C1 (centres undefined)"
  unit-tag: "%"
  Percent Effect: 34.9
- molecule: "Cc1ccc(-c2nnc(CN3CCOC(Cn4cccn4)C3)o2)cc1 (centres undefined)"
  unit-tag: "%"
  Percent Effect: 4.27
- molecule: "Cc1ccc(C)c(CNC(=O)NC(C)(C(=O)O)c2ccco2)c1 (centres undefined)"
  unit-tag: "%"
  Percent Effect: 5.04
- molecule: "Cc1ccc(C(=O)NC2CCN(C(=O)Nc3ccccn3)CC2)o1"
  unit-tag: "%"
  Percent Effect: 9.29
- molecule: "COCCCN1CCCN(C(C)c2nc(C3CC3)no2)CC1 (centres undefined)"
  unit-tag: "%"
  Percent Effect: -3.07
